Molecular target: H+,K+-ATPase
Sequence (P20648 whole entry): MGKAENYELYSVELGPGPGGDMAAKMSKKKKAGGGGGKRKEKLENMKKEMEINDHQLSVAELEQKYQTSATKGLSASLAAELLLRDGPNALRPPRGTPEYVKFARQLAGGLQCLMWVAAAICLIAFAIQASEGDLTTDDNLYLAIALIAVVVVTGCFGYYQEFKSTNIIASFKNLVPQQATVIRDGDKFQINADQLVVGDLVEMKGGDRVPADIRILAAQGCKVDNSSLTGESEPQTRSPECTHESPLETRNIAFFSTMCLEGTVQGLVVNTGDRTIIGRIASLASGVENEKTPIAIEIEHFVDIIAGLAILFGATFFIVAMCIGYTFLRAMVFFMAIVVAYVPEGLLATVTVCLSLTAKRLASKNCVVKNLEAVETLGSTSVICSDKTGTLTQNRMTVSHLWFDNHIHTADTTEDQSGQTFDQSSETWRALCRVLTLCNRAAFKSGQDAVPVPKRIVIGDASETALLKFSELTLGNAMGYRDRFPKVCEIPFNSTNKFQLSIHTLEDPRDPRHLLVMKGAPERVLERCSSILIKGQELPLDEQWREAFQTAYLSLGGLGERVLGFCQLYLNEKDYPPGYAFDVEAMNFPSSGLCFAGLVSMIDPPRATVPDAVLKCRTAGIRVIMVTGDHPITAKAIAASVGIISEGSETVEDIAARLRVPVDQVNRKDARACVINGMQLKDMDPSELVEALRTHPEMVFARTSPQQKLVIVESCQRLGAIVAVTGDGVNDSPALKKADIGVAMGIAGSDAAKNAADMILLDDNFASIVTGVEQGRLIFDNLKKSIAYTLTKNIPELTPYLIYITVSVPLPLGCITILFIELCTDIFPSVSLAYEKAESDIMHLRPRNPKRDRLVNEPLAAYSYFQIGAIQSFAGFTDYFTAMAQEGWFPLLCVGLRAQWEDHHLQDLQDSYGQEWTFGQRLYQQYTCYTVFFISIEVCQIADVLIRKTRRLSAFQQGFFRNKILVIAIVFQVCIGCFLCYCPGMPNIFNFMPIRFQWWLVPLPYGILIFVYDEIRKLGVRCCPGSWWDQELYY
Sequence (P51164 whole entry partner): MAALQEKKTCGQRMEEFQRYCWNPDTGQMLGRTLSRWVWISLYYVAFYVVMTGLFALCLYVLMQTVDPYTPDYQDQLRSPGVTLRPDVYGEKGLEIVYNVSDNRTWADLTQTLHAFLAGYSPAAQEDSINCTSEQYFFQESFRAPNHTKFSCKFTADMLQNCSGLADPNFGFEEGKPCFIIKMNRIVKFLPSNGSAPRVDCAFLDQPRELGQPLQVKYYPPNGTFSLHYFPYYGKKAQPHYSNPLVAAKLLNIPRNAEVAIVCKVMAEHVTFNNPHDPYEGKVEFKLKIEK
Assay: Determination of H+,K+-ATPase activity
Conditions: membrane vesicles, 15 min at +37° C., pH 7.4, 10 mM KCl, 2 mM ATP; release of inorganic phosphate
The entries below are paired with their reported pIC50.
// returns pIC50 (minus log10 of molar concentration), number only

[
  {
    "molecule": "Cc1cccc(C)c1COc1nccn2c(C)c(C)nc12 [Example 2]",
    "reported": 5.56
  }
]

Summary for this molecule, Cc1cccc(C)c1CNc1nccn2c(C)c(C)nc12 [Example 1] : pIC50 is 6.80
